Biological target: T1, human IL-21R expressed on cells (human, UniProt Q9HBE5 20-538)
T1 construct: also called human IL-21R-BaF3; human IL-21R-TF1
T1 sequence (Q9HBE5 20-538 limits assumed): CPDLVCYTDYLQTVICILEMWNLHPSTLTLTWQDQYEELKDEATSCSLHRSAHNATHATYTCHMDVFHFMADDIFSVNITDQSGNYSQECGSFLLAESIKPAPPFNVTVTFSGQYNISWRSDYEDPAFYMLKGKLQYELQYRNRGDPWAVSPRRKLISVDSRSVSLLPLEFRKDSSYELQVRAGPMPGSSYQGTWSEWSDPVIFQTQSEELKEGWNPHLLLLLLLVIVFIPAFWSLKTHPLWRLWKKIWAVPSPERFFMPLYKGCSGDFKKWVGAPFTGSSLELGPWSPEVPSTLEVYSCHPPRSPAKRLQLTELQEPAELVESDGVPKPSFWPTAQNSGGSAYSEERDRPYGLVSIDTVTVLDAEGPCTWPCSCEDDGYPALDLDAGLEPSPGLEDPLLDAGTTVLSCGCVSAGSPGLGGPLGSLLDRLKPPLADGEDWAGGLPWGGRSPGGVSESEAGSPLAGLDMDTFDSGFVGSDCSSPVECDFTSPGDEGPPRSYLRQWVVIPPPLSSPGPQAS
Assay: cell ELISA, CHO cells
measurement_kind: A450 (13 nM Ab) (A450)
Reply with just the number (in A450).

Sample answers from the record:
AbJ (antibody, IgG1, V domains shown, As for AbA: IgG1/lambda, CDR3 graft, residue limits derived; also called VH3/VLP) VH: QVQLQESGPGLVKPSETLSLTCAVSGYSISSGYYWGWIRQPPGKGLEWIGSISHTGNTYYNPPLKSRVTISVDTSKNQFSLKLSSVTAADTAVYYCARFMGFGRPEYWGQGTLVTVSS VL: SSELTQDPAVSVALGQTVRITCQGDSLRTYYASWYQQKPGQAPVLVIYGKHKRPSGIPDRFSGSSSGNTASLTITGAQAEDEADYYCNSRDSSGNPHVLFGGGTQLTVL ... 1.22
AbB (antibody, IgG1, V domains shown, As for AbA: IgG1/lambda, CDR3 graft, residue limits derived; also called VHP/VL3) VH: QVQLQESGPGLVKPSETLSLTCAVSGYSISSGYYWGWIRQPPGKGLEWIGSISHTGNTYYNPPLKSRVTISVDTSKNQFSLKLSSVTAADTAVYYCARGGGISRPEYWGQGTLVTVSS VL: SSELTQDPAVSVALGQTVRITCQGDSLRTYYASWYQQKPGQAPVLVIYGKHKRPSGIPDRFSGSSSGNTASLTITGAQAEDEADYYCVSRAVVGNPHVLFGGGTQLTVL ... 1.15

Please turn your attention to the following entry.
QUERY: Bench note: what A450 (13 nM Ab) did AbT (antibody, human IgG1, V domains shown, CDR3 graft, residue limits derived as for m29; also called VHP/VL9; VHPTM/VL9) VH: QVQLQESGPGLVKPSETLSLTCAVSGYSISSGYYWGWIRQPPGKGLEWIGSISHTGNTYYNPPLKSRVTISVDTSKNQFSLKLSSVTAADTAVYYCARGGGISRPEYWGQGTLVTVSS VL: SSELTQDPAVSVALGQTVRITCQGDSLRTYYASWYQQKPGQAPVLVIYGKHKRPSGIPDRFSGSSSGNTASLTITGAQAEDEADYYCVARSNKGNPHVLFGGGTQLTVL show?
RESULT: 1.08

Source: patent US20120276102A1
